# System: PfAP2-EXP AP2 domain (GST-tagged)
# RUN_DESCRIPTION: gcPBM binding intensity (ln(normalized median fluorescence intensity)); higher = stronger DNA binding
The full ranking holds about 25,000 sequences; the median of “ln(normalized median fluorescence intensity)” is about 8.6, and the highest 2% start at about 10. This excerpt belongs to a sample that is enriched for the highest values.
Collected gcPBM binding intensity (ln) values appear next to each entry.

Answered examples (6):
TATGCATATACACAAGCACACATATATATATATATA [CACACA_site8266] ... 10.1
TCTATAAAGGAATATACACACATATATATATATATA [CACACA_site410] ... 10
AAAAAAAAAAAAAACACACATACATACATACATATA [CACACA_site4121] ... 8.55
ACACATAATATGTGTAGTACTTTTTCTTTAACATTA [XGTACX_site1436] ... 8.64
ACGGAAAAAGAAAAGGTGCATATGGACACAATATAT ... 9.35
TATATATATAAACACACACACACATATATATATATT [CACACA_site8814] ... 9.02

sequence AAAACAAACAGACACACACACATATATATATATATA [CACACA_site3655] , gcPBM binding intensity (ln) observed: 10.3

# sequence CGTATGTGCGGACATGCATGCAATATACAAGAAAAA [TGCATGCA_site145] ; its gcPBM binding intensity (ln) = 10.2

Lab book: gcPBM binding intensity (ln) of TATATATATAAACACACACACATATATATATATATA [CACACA_site4584] noted as 10.1

The sequence AAAAAAAAAAAAAAGACACACATATATATATATATA [CACACA_site633] showed gcPBM binding intensity (ln) equal to 10
